Ref: BindingDB's records for doi:10.1016/s0960-894x(03)00042-8

target: Prostaglandin E2 receptor EP4 subtype (Homo sapiens, UniProt P35408); test: Binding affinity towards EP4 receptor expressed in HEK293 ebna cells recombinantly expressing the corresponding human prostanoid cDNAs
Sequence (P35408 whole entry): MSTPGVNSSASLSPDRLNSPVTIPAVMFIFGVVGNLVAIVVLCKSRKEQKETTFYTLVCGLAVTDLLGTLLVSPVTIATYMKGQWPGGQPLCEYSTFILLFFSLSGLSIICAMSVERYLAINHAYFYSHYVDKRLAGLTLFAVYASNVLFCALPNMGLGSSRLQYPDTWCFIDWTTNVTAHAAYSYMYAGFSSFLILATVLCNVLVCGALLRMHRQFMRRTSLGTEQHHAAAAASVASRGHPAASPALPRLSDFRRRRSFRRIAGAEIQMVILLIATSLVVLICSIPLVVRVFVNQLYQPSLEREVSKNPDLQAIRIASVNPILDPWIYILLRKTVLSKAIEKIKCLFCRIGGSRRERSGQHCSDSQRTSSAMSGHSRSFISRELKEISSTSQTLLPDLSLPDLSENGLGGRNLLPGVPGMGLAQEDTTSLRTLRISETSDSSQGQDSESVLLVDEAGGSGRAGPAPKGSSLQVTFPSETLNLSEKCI
measured_endpoint: Ki (nM)

>>> print(df.to_string())
                              record_smiles                          target_or_system  measurement
0  O=C1CC[C@H](/C=C/[C@H](O)Cc2ccccc2)N1CCCCCCc1nnn[nH]1  Prostaglandin E2 receptor EP4 subtype (Homo sapiens, UniProt P35408)          2.5
